target: T1, HCV Core 134-171-TT Peptide (hepatitis C virus (HCV-1 numbering) …); test: SPR, captured mAb, peptide analyte
T1 construct: also called ALRZ-9 peptide
Here the recorded Kd is given for each entry.

# example entries with known answers
binder	Kd
HCV 208B-547 (antibody, V domains shown) VH: QVQLQQSGAELAKPGASVKMSCKASGYTFTSNKMHWAKQRPGQGLEWIGYIDPSSGYTEYNQKIKDKATLTADKSSSTAYMQLSSLTSEDSAVYYCTNFAYWGQGTLVTVSA VL: EVVLTQSPAITAASLGQKVTITCRASSSVSYMHWYRQKSGTSPQPWIYEISTLASGVPTRFRASGSGTSYSLTISSMEAEDAAIYYCQQWNYPLTFGAGTKLELKR	3.2 nM
HCV 208A-159 (antibody, V domains shown) VH: QLQQSGPAQVKPGASVMISCKTSGYTFTENAMHWVKQSHGKSLEWIGGVNPNNGDTIFNQKFKDKAALTVDKSSSTAFMELRSLTSEESTVYYCVRRELDFFDYWGQGTSVTVSS VL: DIVLTQSPASLAVSLGQRATISCRASQSVSTSRYSYVHWYQQKPGQPPKLLIKYAANLESGVPARFSGSGSGTDFTLNIHPVAEEDAAAYYCQHSWEFPFTFGSGTKLEIKR	0.45 nM
HCV 208A-638 (antibody, V domains shown) VH: QGQLQQPGAEFVKPGASLKLSCRASGYTFTSYWIHWVKQRPGQGLEWIGEVDPSDSYINQNEKFRGKATLTVDKSSSTAYMQLGSLTSEDSAVYYCARHYYGVLDSWGQGTALTVSS VL: QIVLTQSPTIMSASLGERVTMTCTASSSVSSSYLHWFQQKPGSSPKLWIYSTSNLASGVPPRFSGSGSGTSYSLSISSVEAEDVATYYCLQFHRSPWTFGGGAKLEIKR	0.2 nM

Input: Consider the binder HCV 208B-556 (antibody, V domains shown) VH: QLQQSGPVLVKPGASVMISCKTSGYTFTENAMHWVKQSHGKSLEWIGGVNPNNGDTIFNQKFKGKATLTVDKSSSTAFMEFRSLTSEESTVYYCVRRELDFFDYWGQGTSVTVSS VL: DIVLTQSPASLAVSLGQRATISCRASQSVSTSRYSYMHWYQQKPGQPPKLLIKYASNLESGVPARFSGSGSGTDFTLNIHPVAEEDTATYYCQHSWEFPFTFGSGTKLEIKR and give its measured Kd.
Output: 0.4 nM

Input: Consider the binder HCV 208A-207 (antibody, V domains shown) VH: QGQLQQPGAEFVKPGASLKLSCRASGYTFTSYWIHWVKQRPGQGLEWIGEIDPSDSYINQNQKFRGKATLTVDKSSSTAYMELSGLTSEDSAVYYCARHYYGVLDSWGQGTTLTVSS VL: DIVLTQSPATLSVTPGDRVSLSCRASQRIYNYLHWYQQKSHESPRLLTKYASQSISGIPSRFSGSGSGTDFILTINSVETEDFGMYFCQQSNSWPLTFGAGTKLELRR and give its measured Kd.
Output: < 0.032 nM
